System name: Heat shock protein HSP 90-alpha (Homo sapiens)
Assay comment: Hsp90 blockade concentration-response – dose response (AID 712)
Condition context: Hsp90 inhibition assay
The source made the active and inactive calls. The rule behind the calls is not given here.
Test readout: IC50

[[record]]
molecule = "O=S(=O)(Nc1ccc(Cl)cc1O)c1ccccc1"
recorded_value = "> 50 µM (inactive)"

[[record]]
molecule = "Nc1cc(N)c(OCC(F)(F)F)cc1OCC(F)(F)F"
recorded_value = "inactive"

[[record]]
molecule = "CCc1cc(-c2[nH]ncc2-c2ccc3c(c2)OCO3)c(O)cc1O"
recorded_value = "1.97 µM"

[[record]]
molecule = "CCOC(=O)Cc1c[nH]c2ccc(N)cc12"
recorded_value = "> 50 µM (inactive)"

[[record]]
molecule = "O=C1C2C3C=CC(C3)C2C(=O)N1CNc1ccc(O)cc1 (centres undefined)"
recorded_value = "14.7 µM"


Lab note: c1ccc2sc(SCc3ccc(-c4nnco4)cc3)nc2c1 gave IC50 of > 50 µM (inactive)

Note to self: IC50 recorded for COc1cccc2c1C(=O)c1c(O)c3c(c(O)c1C2=O)C[C@@](O)(C(=O)CO)C[C@@H]3O[C@H]1C[C@H](N)[C@H](O)[C@H](C)O1 was 0.266 µM

Lab note: measured IC50 of Nc1cc(N)c2cccnc2c1O was 3.13 µM

IC50 in this record for Oc1cc(O)c2ncccc2c1 : > 50 µM (inactive)

response.value for NCc1cc(S(=O)(=O)Nc2cc(O)cc3cccnc23)ccc1F (field: IC50) = > 50 µM (inactive)

Sure, the documented IC50 for O=c1oc2c3c4c(cc2s1)CCCN4CCC3 is > 50 µM (inactive)
